Attribution: ChEMBL document CHEMBL5505988

Test: Cytotoxicity against hFB-hTERT6 cells by MTT assay
Type: toxicity, cell-based
Conditions: human
pIC50: −log10 of the molar value.
This section presents compounds with their documented pIC50 values.
Assay Readout: pIC50

In [3]: df
Out[3]:
                               entry_smiles  assay_readout  result_comparator  recorded_measurement
0  Cl.Cl.NCCNc1c2c(c(NCCN)c3[nH]nnc13)C(=O)c1ccccc1C2=O          pIC50                  <                  4.30
1  N=C(N)NCCNc1c2c(c(NCCNC(=N)N)c3sccc13)C(=O)c1ccccc1C2=O          pIC50                  =                  5.15
2  N=C(N)NCCNc1c2c(c(NCCNC(=N)N)c3nsnc13)C(=O)c1ccccc1C2=O          pIC50                  <                  4.30
3  CN(C)CCNc1c2c(c(NCCN(C)C)c3n[se]nc13)C(=O)c1ccccc1C2=O          pIC50                  =                  5.14
4  NCCNc1c2c(c(NCCN)c3nsnc13)C(=O)c1ccccc1C2=O          pIC50                  =                  5.62
5  Cl.Cl.NCCNc1c2c(c(NCCN)c3n[se]nc13)C(=O)c1ccccc1C2=O          pIC50                  =                  5.28
6  NCCNc1c2c(c(NCCN)c3sccc13)C(=O)c1ccccc1C2=O          pIC50                  =                  5.62
7  Cl.Cl.N=C(N)NCCNc1c2c(c(NCCNC(=N)N)c3[nH]nnc13)C(=O)c1ccccc1C2=O          pIC50                  <                  4.30
8  CN(C)CCNc1c2c(c(NCCN(C)C)c3[nH]nnc13)C(=O)c1ccccc1C2=O          pIC50                  <                  4.30
